# TARGET_DESC: Neuropeptide S receptor (Homo sapiens)
# PROCEDURE_DETAILS: Confirmation Concentration-Response Assay for Antagonists of the Neuropeptide S Receptor: cAMP Signal Transduction
# COND: CHO-NPSR cells, cAMP TR-FRET, antagonist mode; series mostly up to 22.3 µM
Results filed as inconclusive are left out. Activity calls are given as the source filed them. Calls come from the whole dose curve; as a rule, active = well fitted inhibition curve with a large enough effect in the main read-out, with a control signal flat; inconclusive = small, poorly fitted or top-dose-only effect, or a change in a side signal; inactive = flat fitted curve, though single readings scatter.
Write down one outcome, taken from YES for active, NO for inactive

*Q* Please share the test call associated with `CCO[C@@H]1OC(C(=O)NCc2nc3ccccc3[nH]2)=C[C@H](c2ccc(C(F)(F)F)cc2)[C@H]1CCCO` .
*A* NO

Further cases:
*Q* Would you mind telling me which call this test gave `CN(Cc1cc(=O)[nH]c2ccccc12)C(=O)c1ccccc1` ?
*A* NO

*Q* What was the test verdict on `S=C(Nc1ccccc1)Nc1nccs1` ?
*A* NO

*Q* What is the recorded call for this compound in the test? `CN(C)C(=O)Oc1cccc([N+](C)(C)C)c1`
*A* NO

*Q* Which outcome did this test record for the compound COc1cccc(N2CCN(c3ncnc4c3[nH]c3ccc(F)cc34)CC2C)c1 (configuration not stated) ?
*A* YES

*Q* Tell me the recorded outcome of this test for `CC1=C/C(=N\NC(=S)Nc2cccnc2)CC(C)(C)C1` .
*A* NO

*Q* Call for entry `NC(=O)c1ccsc1NC(=O)c1ccc(S(=O)(=O)N2CCCC2)cc1` :
*A* NO

*Q* What did this assay record as the result for `Cc1ccc(/C=C2\SC(=S)N(CC(=O)Nc3ncc(Cc4ccccc4Cl)s3)C2=O)cc1` ?
*A* NO

*Q* For `Cc1ccc(S(=O)(=O)Nc2cccc3ncccc23)s1` , which call appears in the assay record?
*A* NO

*Q* Please let me know the test result on file for `COCCCn1c(SCc2cc(=O)[nH]c3ccccc23)nnc1-c1ccco1` .
*A* NO

*Q* Each compound tested received a call. Report the one for `Cc1cccnc1NC(=O)c1c(O)c2cccc3c2n(c1=O)CCC3` .
*A* NO

*Q* Hello, I am checking results. What call was entered for `COc1ccc(-c2cc(N)n(S(=O)(=O)c3c(F)c(F)c(F)c(F)c3F)n2)cc1OC` ?
*A* YES
